From: patent US20130216547A1

assayed-target: T1, mouse big-ET-1 (mouse)
T1 construct: also called mBig-ET-1
T1 peptide: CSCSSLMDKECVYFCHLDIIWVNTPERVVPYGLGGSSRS
test: SPR (Biacore T200), 37 C, mAb capture, peptide analyte
Protocol: Measurements were conducted on a T200 Biacore instrument (Biacore Life Sciences division of GE Healthcare, Piscataway, N.J.). […] Peptide binding was monitored for 3 min while dissociation of mAb-bound peptide was monitored for 4 min in HBST running buffer (0.01 M HEPES pH 7.4, 0.15 M NaCl, 3 mM EDTA, 0.005% v/v Surfactant P20). […]
Quick reference: T½ of the listed items.
Kindly answer with a numeric value in s, unit omitted.

binder="H4H6330P (antibody, V domains shown, Human IgG4 Fc (prefix H4H)) VH: EVQLVESGGGLVQPGGSLRLSCAASGFTFSNYAMSWVRQAPGKGLEWVSAVSGSGVGTYYADSVKGRFTISRDNSKNTLYLQMKSLSAEDTALYYCTKTLGGTHAFDIWGQGTMVTVSS VL: DIQMTQSPSTLSASVGDRVTITCRASQSISRWLAWYQQKPGKAPKLLIYKASSLESGVPSRFSGSGSGTEFTVTINSLQPDDFATYYCQQYNSYSSFGQGTKLEIK" endpoint_label=T½ val=12

Next up:
# T½ of H4H6323P (antibody, V domains shown, Human IgG4 Fc (prefix H4H)) VH: QITLKESGPPLVKPTQTLTLTCTFSGFSLNTNGMGVGWIRQPPGKALEWLTLIYWNDDKRYSPSLKTRLTITKDTSKNQVVLTMTNMDPVDTATYYCARFGSGTYWGQGTLVTVSS VL: DIVMTQSPLSLPVTPGEPASISCRSSQSLLHSYGYNFLDWFLQKPGQSPQLLIYLGSHRASGVPDRFSGSGSGTDFTLKISRVEAEDVGVYYCMQALQTPLTFGGGTKVEIK = 36
